B1: VH:VL chains; a variant is named by its letters at X, in order (parent)
chain 1: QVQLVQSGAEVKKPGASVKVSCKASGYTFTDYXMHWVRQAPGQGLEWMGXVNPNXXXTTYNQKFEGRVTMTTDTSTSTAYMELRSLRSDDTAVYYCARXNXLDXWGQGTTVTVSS
chain 2: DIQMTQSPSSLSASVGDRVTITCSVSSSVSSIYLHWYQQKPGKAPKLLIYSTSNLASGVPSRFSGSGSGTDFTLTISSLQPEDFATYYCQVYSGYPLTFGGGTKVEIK

variants of: B1; assay: yeast display scFab, FACS + sequencing; conditions: with MET
The other results are listed elsewhere or left out. How many sequences the whole screen found active is unknown.

[
  {
    "MUTANT": "VTTKSDSA",
    "antigen binding call": "no binding"
  },
  {
    "MUTANT": "DEGGTDGY",
    "antigen binding call": "no binding"
  },
  {
    "MUTANT": "VRTEDALD",
    "antigen binding call": "binds"
  },
  {
    "MUTANT": "VRTEDDVD",
    "antigen binding call": "no binding"
  },
  {
    "MUTANT": "FRARGAGA",
    "antigen binding call": "binds"
  },
  {
    "MUTANT": "VRTAASGD",
    "antigen binding call": "no binding"
  },
  {
    "MUTANT": "VRTEDALV",
    "antigen binding call": "binds"
  },
  {
    "MUTANT": "FRAGGAGA",
    "antigen binding call": "binds"
  },
  {
    "MUTANT": "FRARGSGA",
    "antigen binding call": "binds"
  },
  {
    "MUTANT": "FAARAFGV",
    "antigen binding call": "no binding"
  },
  {
    "MUTANT": "VRTEDSGD",
    "antigen binding call": "binds"
  }
]
